# System: Wild type
# assay-summary: S. aureus survival, RN4220 and DeltatarO strains – OD600, teichoic acid synthesis inhibitors, primary screen (AID 463173)
# condition-label: S. aureus RN4220 wild type/DeltatarO growth, OD600, 18 h, hits give low values, screened at 18.75 µg/mL (by protocol)
Among all 52,000 compounds or so, about 1,700 (3.3%) were called active. The sample as a whole holds a higher share of actives than the screen did.
Label t when survival is strictly below 70%; otherwise label f.

| compound | class |
| --- | --- |
| CCOc1ccc(CCNC(c2cccc(Cl)c2)c2nnc(-c3ccccc3)o2)cc1OCC (stereo not drawn) | f |
| CCOc1ccc(CCNC(c2nnc(-c3ccccc3)o2)c2ccccc2Cl)cc1OCC (stereo not drawn) | t |
| CCc1nn2c(=O)cc(COC(=O)c3cccc(NC(=O)COc4ccccc4F)c3)nc2s1 | f |
| CCc1cccc(C)c1Nc1c(-c2ccsc2)nc2ncccn12 | t |
| Clc1ccc(CCNC(c2ccc(Cl)cc2)c2nnc(-c3ccccc3)o2)cc1 (stereo not drawn) | f |
| CCN(CC)C(=O)CSc1nnc(COc2ccc(Br)cc2)o1 | f |
| CCc1ccc(-n2nc(C)c3c(C(=O)Nc4cccc(C(F)(F)F)c4)cc(C)nc32)cc1 | t |
| Cc1cc(C(=O)Nc2cccc(C)c2C)c2c(C)nn(-c3cccc(F)c3)c2n1 | f |
| CCc1ccc(-n2nc(C)c3c(C(=O)Nc4cc(OC)cc(OC)c4)cc(C)nc32)cc1 | t |
| COc1cccc(-c2ccc3c(N)c(C(=O)c4ccc(F)cc4)sc3n2)c1 | t |
| COc1ccc(-n2nc3c(N4CCC(C(=O)NC5CCCCC5)CC4)nnc(C)c3c2C)cc1 | f |
| CCOC(=O)c1cnc2c(ccc3ccccc32)c1Nc1cccc(Cl)c1 | t |

###

# System: Wild type
# assay-summary: S. aureus survival, RN4220 and DeltatarO strains – OD600, teichoic acid synthesis inhibitors, primary screen (AID 463173)
# condition-label: S. aureus RN4220 wild type/DeltatarO growth, OD600, 18 h, hits give low values, screened at 18.75 µg/mL (by protocol)
Out of some 52,000 compounds screened, about 1,700 (3.3%) were called active. The sample holds actives, similar compounds and a random draw of the others, so the mix is not that of the screen.
Categorize each record by its survival using low group: < 80%; middle group: ≥ 80% and < 90%; high group: ≥ 90%

| molecule | system | class |
| --- | --- | --- |
| Cc1oc(-c2cccc(Cl)c2)nc1CN1CCCC(C(=O)NCc2ccc(Cl)cc2)C1 (stereo not given) | Wild type | low group |
| Cc1oc(-c2cccc(Cl)c2)nc1CN1CCCC(C(=O)NCc2ccc(F)cc2)C1 (stereo not given) | Wild type | low group |
| COc1cccc(CNS(=O)(=O)c2ccc(-c3cc(C(F)(F)F)on3)s2)c1 | Wild type | middle group |
| CCOC(=O)N1CCc2c(sc3c2c(=O)n(Cc2ccccc2)c(=O)n3CC(=O)Nc2ccc(F)cc2)C1 | Wild type | middle group |
| Cc1ccc(CNC(=O)C2CCN(Cc3nc(-c4cccc(Br)c4)oc3C)CC2)cc1 | Wild type | low group |
| COc1cc(OC)cc(C(=O)Nc2ccccc2-c2nc3ccccc3s2)c1 | Wild type | low group |
| Cc1nn2c(C)c(C(=O)NCc3ccc(OC(C)C)cc3)cnc2c1-c1ccc(F)cc1 | Wild type | low group |
| O=C(NCCc1ccccc1)c1cc(-c2ccc(Cl)cc2)on1 | Wild type | high group |
| CC(C)CNc1nc(NC(C)(C)C)nc(Oc2ccc(=O)n(-c3ccccc3)n2)n1 | Wild type | middle group |
| COc1cccc(-c2nc3c(c(SCc4ccccc4)n2)Cc2c(CO)cnc(C)c2O3)c1 | Wild type | high group |
| O=C(NCCc1ccccc1Cl)c1cc2ccccn2n1 | Wild type | high group |
| O=C(Nc1ccc(-c2nc3ccccc3s2)c(O)c1)c1ccc(Br)cc1 | Wild type | middle group |

###

# Tested on: Wild type
# assay-summary: S. aureus survival, RN4220 and DeltatarO strains – OD600, teichoic acid synthesis inhibitors, primary screen (AID 463173)
# condition-label: S. aureus RN4220 wild type/DeltatarO growth, OD600, 18 h, screened at 18.75 µg/mL (by protocol)
In all, about 52,000 compounds went through this assay and about 1,700 (3.3%) were called active. No stated cut-off is given here; in the data, active means survival mostly below about 52% (no sharp cut-off); inactive means mostly above about 56%. The sample holds actives, similar compounds and a random draw of the others, so the mix is not that of the screen.
Labels: YES (active), NO (inactive)

| molecule | class |
| --- | --- |
| Cc1cc(C)c(NC(=O)CN2c3ccccc3S(=O)(=O)c3ccccc32)c(C)c1 | NO |
| CC(C)(C)c1ccc(Oc2ccc(NC(=O)CCC(=O)OCC(=O)c3ccccc3)cc2)cc1 | NO |
| CC1C(=O)N2CCCc3cc(S(=O)(=O)N4CCC(C(N)=O)CC4)cc1c32 (configuration not stated) | YES |
| COC(=O)C1CCN(S(=O)(=O)c2cc3c4c(c2)C(C)C(=O)N4CCC3)CC1 (configuration not stated) | NO |
| Cc1ccc(CNC(=O)CSCc2ccc(F)cc2)cc1 | NO |
| Cc1ccc(CNS(=O)(=O)c2ccc(C(=O)N(C)C)s2)cc1 | YES |
| CC(C)(C)c1ccccc1NC(=O)CSc1nc(-c2cccs2)cc(C(F)(F)F)n1 | YES |
| Cc1ccc(CNS(=O)(=O)c2cc(Br)cc3c2N(C(=O)C2CC2)CC3)cc1 | NO |
| CCOc1ccc(CNC(=O)c2cc3c(=O)n(Cc4cccs4)ccc3nc2C)cc1 | NO |
| COc1cc(NC(=O)c2cc3c(=O)n(Cc4cccs4)ccc3nc2C)cc(OC)c1OC | YES |
| CC1(C)Oc2ccc(C(=O)N3CCCC3)cc2N(CC(=O)N2CCCCC2)C1=O | NO |
| Cc1ccc(N(O)C(=O)Nc2ccccc2)cc1 | NO |
| COc1cc(N(C(=O)c2ccco2)C(C(=O)NC2CCCC2)c2ccc(C)cc2)ccc1-n1cnnn1 (configuration not stated) | NO |
| O=C(CN1c2ccccc2S(=O)(=O)c2ccccc21)Nc1ccccc1Cl | NO |
| COc1ccc(-c2nc3cc(N=Cc4ccccc4O)ccc3o2)cc1 | NO |
| CCOc1ccc(OCC)c(NC(=O)c2cc(CN3CCOCC3)on2)c1 | NO |
| Cc1nc2ccn(Cc3cccs3)c(=O)c2cc1C(=O)NCc1ccc(Cl)cc1 | NO |
| CCOc1ccccc1NC(=O)CSc1nc(-c2cccs2)cc(C(F)(F)F)n1 | NO |
| CCCN1C2CCCC1CC(NC(=O)c1ccc(F)cc1)C2 (configuration not stated) | NO |
| CN1C(=O)CC(=O)N(C)c2cc(S(=O)(=O)N(C)Cc3ccccc3)ccc21 | NO |
| CCc1ccc(OC(C)c2nc(-c3ccc(-n4cccc4)cc3)no2)cc1 (configuration not stated) | YES |
| CCOc1ccccc1NC(=O)CN1C=NS(=O)(=O)c2ccccc21 | NO |
| O=C(CSc1nc(-c2cccs2)cc(C(F)(F)F)n1)Nc1ccccc1Cl | NO |
| CS(=O)(=O)NCC(c1ccco1)N1CCN(c2ccccc2)CC1 (configuration not stated) | NO |
| COc1ccc(CNC(=O)C2CCN(c3nc4ccccc4[nH]3)CC2)cc1OC | NO |
| COc1ccc(CNC(=O)c2cc3c(=O)n(Cc4cccs4)ccc3nc2C)cc1 | YES |
| CCc1ccc(CNC(=O)c2cc3c(=O)n(Cc4cccs4)ccc3nc2C)cc1 | YES |
| Cc1ccccc1NC(=O)Cn1cc(S(=O)(=O)c2ccccc2)c(=O)c2ccccc21 | NO |
| Cc1cccc(NC(=O)CN2C(=O)COc3ccc(S(=O)(=O)Nc4ccccc4)cc32)c1C | NO |
| Cc1cccc(OCCCn2c(CCNC(=O)C(C)(C)C)nc3ccccc32)c1 | NO |
| COC(=O)c1scc(-c2ccc(C)cc2)c1S(=O)(=O)Nc1ccc(F)cc1F | NO |
| COc1ccc(NC(=O)C2CCC(CNS(=O)(=O)c3cccc4nsnc34)CC2)cc1OC (configuration not stated) | NO |
| C=CCN1C(=O)C(C)(C)N(C(C)=O)c2ccccc21 | NO |
| COC(=O)c1ccccc1NC(=O)CSc1cc(-c2ccccc2)nc(C)n1 | NO |
| CCOc1cc(CNC(=O)C2CCN(c3nc4ccccc4[nH]3)CC2)cc(OCC)c1OCC | YES |
| CN(C)c1ccc(CNC(=O)C2CCN(c3nc4ccccc4[nH]3)CC2)cc1 | NO |
| COc1ccc(NC(=O)c2cc3c(=O)n(Cc4cccs4)ccc3nc2C)cc1 | NO |

###

# System: Wild type
# assay-summary: S. aureus survival, RN4220 and DeltatarO strains – OD600, teichoic acid synthesis inhibitors, primary screen (AID 463173)
# condition-label: S. aureus RN4220 wild type/DeltatarO growth, OD600, 18 h, screened at 18.75 µg/mL (by protocol)
Screen size: about 52,000 compounds; about 1,700 (3.3%) were called active. Rule as the data show it: active = survival mostly below about 52% (no sharp cut-off); inactive = mostly above about 56%. This excerpt belongs to a sample that is enriched for actives.
Labels: Yes for active, No for inactive

| compound | system | class |
| --- | --- | --- |
| Cc1ccc(Nc2nc(N)nc(CSc3nc4ccccc4s3)n2)cc1 | Wild type | No |
| Cc1ccccc1CN1C(=O)C(O)(CC(=O)c2cccc(Br)c2)c2ccccc21 (stereo not drawn) | Wild type | Yes |
| CCOC(=O)c1c(NC(C)=O)c2c3c(sc2n1Cc1nc(-c2ccc(Cl)cc2)oc1C)CCCC3 | Wild type | No |
